src = PubChem BioAssay

Target: Receptor tyrosine-protein kinase erbB-2 (Homo sapiens) (UniProt P04626)
Sequence (P04626 whole entry, looked up): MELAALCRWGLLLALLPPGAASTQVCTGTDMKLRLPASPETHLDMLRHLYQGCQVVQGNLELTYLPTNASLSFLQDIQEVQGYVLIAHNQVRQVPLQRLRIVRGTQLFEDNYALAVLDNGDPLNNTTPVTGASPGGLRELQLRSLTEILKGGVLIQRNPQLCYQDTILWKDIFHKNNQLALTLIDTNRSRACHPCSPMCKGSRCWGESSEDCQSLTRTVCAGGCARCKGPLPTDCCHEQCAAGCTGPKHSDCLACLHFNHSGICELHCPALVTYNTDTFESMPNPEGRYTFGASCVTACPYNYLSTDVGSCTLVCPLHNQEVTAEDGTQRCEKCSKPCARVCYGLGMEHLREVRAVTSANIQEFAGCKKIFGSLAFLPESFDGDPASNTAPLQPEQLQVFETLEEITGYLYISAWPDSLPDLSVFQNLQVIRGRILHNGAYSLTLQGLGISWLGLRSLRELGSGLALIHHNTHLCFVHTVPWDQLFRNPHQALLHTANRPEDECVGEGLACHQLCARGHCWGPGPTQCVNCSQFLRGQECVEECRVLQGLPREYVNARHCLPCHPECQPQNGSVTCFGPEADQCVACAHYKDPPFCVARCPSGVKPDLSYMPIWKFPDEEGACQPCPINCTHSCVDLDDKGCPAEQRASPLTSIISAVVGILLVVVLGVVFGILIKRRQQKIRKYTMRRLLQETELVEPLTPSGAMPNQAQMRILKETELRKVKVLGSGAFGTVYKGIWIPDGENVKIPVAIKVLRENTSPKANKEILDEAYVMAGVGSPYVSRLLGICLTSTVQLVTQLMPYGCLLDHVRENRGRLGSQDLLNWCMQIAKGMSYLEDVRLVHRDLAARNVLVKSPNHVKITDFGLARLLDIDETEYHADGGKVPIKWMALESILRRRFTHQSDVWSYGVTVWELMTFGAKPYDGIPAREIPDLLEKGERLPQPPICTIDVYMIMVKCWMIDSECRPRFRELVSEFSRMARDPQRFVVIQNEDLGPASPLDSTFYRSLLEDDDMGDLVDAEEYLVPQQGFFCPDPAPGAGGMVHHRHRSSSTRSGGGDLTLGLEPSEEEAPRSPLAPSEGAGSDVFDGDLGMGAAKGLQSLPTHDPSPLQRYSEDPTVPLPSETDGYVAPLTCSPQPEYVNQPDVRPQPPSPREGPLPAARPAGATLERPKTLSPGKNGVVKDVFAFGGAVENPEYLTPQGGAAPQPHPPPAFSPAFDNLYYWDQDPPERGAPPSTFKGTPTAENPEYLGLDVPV
Assay: reducers of endogenous Her2 protein level, primary screen, SKBR3 breast tumor cells, AlphaScreen, ATP viability (AID 461);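 further: lower value means less Her2 protein in the cells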
Details: 18-24 h, at 10 µM, stronger effect = lower value
METRIC_NAME: Her2 level (%)
Numbers only; they are read as %.

{"MOLECULE": "Brc1ccc2[nH]ncc2c1", "METRIC_NAME": "Her2 level", "REPORTED_VALUE": 78}
{"MOLECULE": "O=C(NCC1CCCO1)c1cccc(N2C(=O)C3C4C=CC(C4)C3C2=O)c1 (centres undefined)", "METRIC_NAME": "Her2 level", "REPORTED_VALUE": 94}
{"MOLECULE": "O=C(c1ncc[nH]1)c1ccccc1C(=O)N1CCOCC1", "METRIC_NAME": "Her2 level", "REPORTED_VALUE": 112}
{"MOLECULE": "CN1CCN(C(=O)c2cnn3c(C(F)F)cc(C4CC4)nc23)CC1", "METRIC_NAME": "Her2 level", "REPORTED_VALUE": 88.5}
{"MOLECULE": "COCCn1c(CN(Cc2ccccc2)Cc2ccccc2)nc2c1c(=O)n(C)c(=O)n2C", "METRIC_NAME": "Her2 level", "REPORTED_VALUE": 96}

Prompt: Quick one: Her2 level of `CC(C)Oc1cccc(-c2cc(C(=O)N3CCN(S(C)(=O)=O)CC3)c3ccccc3n2)c1` ?
Response: 94

Prompt: Return reported Her2 level; argument: `Cc1nc(N2CCN(c3ncccn3)CC2)c2oc3ccccc3c2n1`
Response: 106

Prompt: Requested field: Her2 level. Item: `CCCc1nc2ccccc2c(=O)n1NC(=O)c1c(O)c2cccc3c2n(c1=O)CCC3`
Response: 87.5

Prompt: I'd like to know its Her2 level. The molecule in question is `CCCNC(=O)c1c(N)n(-c2cc(OC)cc(OC)c2)c2nc3ccccc3nc12`
Response: 73.5

====

Assay: growth inhibitors of H69AR lung tumor, primary screen, human, duplicate replicates (AID 580);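 further: 100% = mean luminescence of untreated wells and 0% = no signal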
Details: H69AR lung tumor cells viability, ATP luminescence, 72 h; at 10 µM; stronger effect = lower value
Reported viability values for the following compounds.
Give a bare numeral; the unit % is implied.

Some compounds with known viability results, for comparison:
{"COMPOUND": "Cc1cc(NC(=O)COc2ncnc3sc(C)c(C)c23)no1", "viability [%]": 89.8}
{"COMPOUND": "CC1CCc2nc(NC(=O)CN3CCN(Cc4ccc5c(c4)OCO5)CC3)sc2C1 (stereo not given)", "viability [%]": 87.8}
{"COMPOUND": "CC(C)CN(CC(C)C)C(=O)CS(=O)(=O)Cc1ccccc1", "viability [%]": 91.4}

Prompt: // lookup viability for CCC1(C(=O)OC)NC(c2cccc(F)c2)C2C(=O)N(C)C(=O)C21 (stereo not given)
Response: 88.3

Prompt: Give the measured viability of `Cc1ccc(-c2nc3cc(N)ccc3o2)cc1` .
Response: 79.9

Prompt: Fill blank: measured viability of the compound `Cc1ccc2cc(CN(Cc3ccc(F)cc3)Cc3nnnn3C3CCCC3)c(=O)[nH]c2c1` is ____.
Response: 78.7

Prompt: viability lookup needed for CCC(C)c1ccc(NC(=O)C2CC2)cc1 (stereo not given) , thanks.
Response: 90.3

Prompt: Param item = `Cc1cc(=O)[nH]c(SCc2nc3ncccn3c2Br)n1` ; retrieve measured viability.
Response: 88.9

Prompt: Name the recorded viability for CCCCC(=NCCO)C1=C(O)C(C(=O)OC)C(C)(C)CC1=O (stereo not given) .
Response: 89.5

Prompt: What value of viability has been recorded for this entry: `CCOc1ccccc1-c1nc(-c2ccc(C)nc2OC)no1`
Response: 81.9
